# SYSTEM UNDER TEST: human CDK4/cyclin D3 (Homo sapiens)
# Construct: made in house; host or cells: insect cells co-infected with baculovirus vectors
# Sequence (P11802 whole entry): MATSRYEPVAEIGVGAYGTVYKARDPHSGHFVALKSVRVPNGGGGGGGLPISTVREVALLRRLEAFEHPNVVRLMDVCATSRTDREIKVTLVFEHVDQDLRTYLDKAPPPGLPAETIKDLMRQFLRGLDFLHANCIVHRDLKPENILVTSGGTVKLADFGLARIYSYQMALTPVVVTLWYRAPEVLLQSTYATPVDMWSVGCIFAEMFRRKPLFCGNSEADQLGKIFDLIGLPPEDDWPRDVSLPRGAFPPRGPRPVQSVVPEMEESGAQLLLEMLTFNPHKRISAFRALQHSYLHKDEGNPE
# Sequence (P30281 1-264 partner limits assumed): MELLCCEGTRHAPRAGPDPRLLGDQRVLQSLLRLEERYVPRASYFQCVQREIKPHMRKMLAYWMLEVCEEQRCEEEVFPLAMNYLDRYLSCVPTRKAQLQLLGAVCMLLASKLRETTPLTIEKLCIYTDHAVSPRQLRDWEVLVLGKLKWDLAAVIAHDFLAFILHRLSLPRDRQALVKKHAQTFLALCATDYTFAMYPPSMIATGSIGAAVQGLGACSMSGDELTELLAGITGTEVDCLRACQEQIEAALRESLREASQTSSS
# ASSAY PROTOCOL: Inhibition of CDK4/cyclin D retinoblastoma kinase activity (Ki; % inhibition)
# Type: biochemical
# MEASUREMENT CONTEXT: 0.03 μM compound
Answer each item with its documented CDK4 % Inhibition at 0.03 μM.
I'd appreciate it if you included the unit after the number.

Exercise: For the molecule Nc1nc(Nc2ccc(C(=O)NCC(O)c3ccccc3)cc2)sc1C(=O)c1c(F)cccc1F (stereo not shown) [Example G391] , give its reported CDK4 % Inhibition at 0.03 μM.
Key: −7%

Exercise: For the molecule CC(O)c1cccc(NC(=O)c2ccc(Nc3nc(N)c(C(=O)c4c(F)cccc4F)s3)cc2)c1 (stereo not shown) [Example G222] , give its reported CDK4 % Inhibition at 0.03 μM.
Key: 27%

Exercise: For the molecule Nc1nc(Nc2ccc(C(=O)NCCO)cc2)sc1C(=O)c1c(F)cccc1F [Example G326] , give its reported CDK4 % Inhibition at 0.03 μM.
Key: 22%

Exercise: For the molecule N#CCCN(Cc1cccnc1)C(=O)c1ccc(Nc2nc(N)c(C(=O)c3c(F)cccc3F)s2)cc1 [Example G316] , give its reported CDK4 % Inhibition at 0.03 μM.
Key: 11%

Exercise: For the molecule CC(C)C[C@@H](CO)NC(=O)c1ccc(Nc2nc(N)c(C(=O)c3c(F)cccc3F)s2)cc1 [Example G333] , give its reported CDK4 % Inhibition at 0.03 μM.
Key: −5%

Exercise: For the molecule CC(=O)c1ccc(NC(=O)c2ccc(Nc3nc(N)c(C(=O)c4c(F)cccc4F)s3)cc2)cc1 [Example G310] , give its reported CDK4 % Inhibition at 0.03 μM.
Key: 10%

Exercise: For the molecule Nc1nc(Nc2ccc(C(=O)NCc3ccccc3C(F)(F)F)cc2)sc1C(=O)c1c(F)cccc1F [Example G269] , give its reported CDK4 % Inhibition at 0.03 μM.
Key: 2%

Exercise: For the molecule COc1cc(NC(=O)c2ccc(Nc3nc(N)c(C(=O)c4c(F)cccc4F)s3)cc2)cc(OC)c1OC [Example G295] , give its reported CDK4 % Inhibition at 0.03 μM.
Key: 22%

Exercise: For the molecule Nc1nc(Nc2ccc(C(=O)NCCCc3ccccc3)cc2)sc1C(=O)c1c(F)cccc1F [Example G325] , give its reported CDK4 % Inhibition at 0.03 μM.
Key: 23%

Exercise: For the molecule Nc1nc(Nc2ccc(C(=O)NCCN3CCNC3=O)cc2)sc1C(=O)c1c(F)cccc1F [Example G229] , give its reported CDK4 % Inhibition at 0.03 μM.
Key: 9%

Exercise: For the molecule Nc1nc(Nc2ccc(C(=O)NCc3ccc(C(F)(F)F)cc3)cc2)sc1C(=O)c1c(F)cccc1F [Example G261] , give its reported CDK4 % Inhibition at 0.03 μM.
Key: 27%

Exercise: For the molecule COC(=O)c1ccc(NC(=O)c2ccc(Nc3nc(N)c(C(=O)c4c(F)cccc4F)s3)cc2)c(C)c1 [Example G354] , give its reported CDK4 % Inhibition at 0.03 μM.
Key: 3%

Exercise: For the molecule Nc1nc(Nc2ccc(C(=O)NCc3ccc(Cl)cc3Cl)cc2)sc1C(=O)c1c(F)cccc1F [Example G236] , give its reported CDK4 % Inhibition at 0.03 μM.
Key: 36%

Exercise: For the molecule N#CCCN(Cc1ccccc1)C(=O)c1ccc(Nc2nc(N)c(C(=O)c3c(F)cccc3F)s2)cc1 [Example G304] , give its reported CDK4 % Inhibition at 0.03 μM.
Key: 20%

Exercise: For the molecule C=CCNC(=O)c1ccc(Nc2nc(N)c(C(=O)c3c(F)cccc3F)s2)cc1 [Example G219] , give its reported CDK4 % Inhibition at 0.03 μM.
Key: 13%

Exercise: For the molecule C=CCN(CC=C)C(=O)c1ccc(Nc2nc(N)c(C(=O)c3c(F)cccc3F)s2)cc1 [Example G272] , give its reported CDK4 % Inhibition at 0.03 μM.
Key: 0%

Exercise: For the molecule Nc1nc(Nc2ccc(C(=O)N3CCN(c4ccccn4)CC3)cc2)sc1C(=O)c1c(F)cccc1F [Example C201] , give its reported CDK4 % Inhibition at 0.03 μM.
Key: 26%

Exercise: For the molecule CCCN(CCC#N)C(=O)c1ccc(Nc2nc(N)c(C(=O)c3c(F)cccc3F)s2)cc1 [Example G364] , give its reported CDK4 % Inhibition at 0.03 μM.
Key: 9%

Exercise: For the molecule Nc1nc(Nc2ccc(C(=O)NCc3ccc(F)cc3F)cc2)sc1C(=O)c1c(F)cccc1F [Example G301] , give its reported CDK4 % Inhibition at 0.03 μM.
Key: 25%

Exercise: For the molecule CCCCCNC(=O)c1ccc(Nc2nc(N)c(C(=O)c3c(F)cccc3F)s2)cc1 [Example G200] , give its reported CDK4 % Inhibition at 0.03 μM.
Key: 23%

Exercise: For the molecule Nc1nc(Nc2ccc(C(=O)Nc3cccc(O)c3)cc2)sc1C(=O)c1c(F)cccc1F [Example G378] , give its reported CDK4 % Inhibition at 0.03 μM.
Key: 8%

Exercise: For the molecule CC1CCCCN1CCCNC(=O)c1ccc(Nc2nc(N)c(C(=O)c3c(F)cccc3F)s2)cc1 (stereo not shown) [Example G303] , give its reported CDK4 % Inhibition at 0.03 μM.
Key: 45%

Exercise: For the molecule CCCCOc1ccc(NC(=O)c2ccc(Nc3nc(N)c(C(=O)c4c(F)cccc4F)s3)cc2)cc1 [Example G205] , give its reported CDK4 % Inhibition at 0.03 μM.
Key: 7%

Exercise: For the molecule Nc1nc(Nc2ccc(C(=O)NC(CO)CSCc3ccccc3)cc2)sc1C(=O)c1c(F)cccc1F (stereo not shown) [Example G383] , give its reported CDK4 % Inhibition at 0.03 μM.
Key: −10%

Exercise: For the molecule Cc1cc(C)cc(NC(=O)c2ccc(Nc3nc(N)c(C(=O)c4c(F)cccc4F)s3)cc2)c1 [Example G297] , give its reported CDK4 % Inhibition at 0.03 μM.
Key: 8%

Exercise: For the molecule Nc1nc(Nc2ccc(C(=O)N[C@H](CO)CC3CCCCC3)cc2)sc1C(=O)c1c(F)cccc1F [Example G359] , give its reported CDK4 % Inhibition at 0.03 μM.
Key: −5%

Exercise: For the molecule Nc1nc(Nc2ccc(C(=O)NCCc3c[nH]c4ccccc34)cc2)sc1C(=O)c1c(F)cccc1F [Example G271] , give its reported CDK4 % Inhibition at 0.03 μM.
Key: 27%

Exercise: For the molecule CCOc1ccc(NC(=O)c2ccc(Nc3nc(N)c(C(=O)c4c(F)cccc4F)s3)cc2)cc1 [Example G313] , give its reported CDK4 % Inhibition at 0.03 μM.
Key: 12%

Exercise: For the molecule COc1ccc(NC(=O)c2ccc(Nc3nc(N)c(C(=O)c4c(F)cccc4F)s3)cc2)cc1F [Example G347] , give its reported CDK4 % Inhibition at 0.03 μM.
Key: 15%

Exercise: For the molecule CCCN(CCc1ccccn1)C(=O)c1ccc(Nc2nc(N)c(C(=O)c3c(F)cccc3F)s2)cc1 [Example G322] , give its reported CDK4 % Inhibition at 0.03 μM.
Key: 4%

Exercise: For the molecule COc1cc(CNC(=O)c2ccc(Nc3nc(N)c(C(=O)c4c(F)cccc4F)s3)cc2)cc(OC)c1OC [Example G234] , give its reported CDK4 % Inhibition at 0.03 μM.
Key: 39%

====

# System: HCT-116 cell line
# ASSAY PROTOCOL: Inhibition of cell growth, MTT tetrazolium salt assay
# Type: cell-based
# MEASUREMENT CONTEXT: HCT-116 cells, 0.25 μM compound
# Experimental: Inhibition of cell growth was measured using the tetrazolium salt assay, which is based on the ability of viable cells to reduce 3-(4,5-dimethylthiazol-2-yl)-2,5-[2H]-diphenyltetrazolium bromide (MTT) to formazan (Mossman, Journal of Immunological Methods, 65, (1983), pp. 55-58). The water-insoluble purple formazan product was then detected spectrophotometrically. The HCT-116 cell line was used as a representative cancer cell line and grown in 96-well plates. […]
Output True for records whose HCT-116 % Inhibition at 0.25 μM is lower than 60%, False for records at or above 60%.

Exercise: Hello, is HCT-116 % Inhibition at 0.25 μM of the following compound strictly smaller than 60%? Cc1ccc(CNC(=O)c2ccc(Nc3nc(N)c(C(=O)c4c(F)cccc4F)s3)cc2)cc1 [Example G253]
Key: False

Exercise: Hello, is HCT-116 % Inhibition at 0.25 μM of the following compound strictly smaller than 60%? Nc1nc(Nc2ccc(C(=O)NCc3ccco3)cc2)sc1C(=O)c1c(F)cccc1F [Example G249]
Key: False

Exercise: Hello, is HCT-116 % Inhibition at 0.25 μM of the following compound strictly smaller than 60%? COc1ccc(NC(=O)c2ccc(Nc3nc(N)c(C(=O)c4c(F)cccc4F)s3)cc2)cc1OC [Example G212]
Key: True

Exercise: Hello, is HCT-116 % Inhibition at 0.25 μM of the following compound strictly smaller than 60%? COc1ccc(CNC(=O)c2ccc(Nc3nc(N)c(C(=O)c4c(F)cccc4F)s3)cc2)cc1OC [Example G345]
Key: True

Exercise: Hello, is HCT-116 % Inhibition at 0.25 μM of the following compound strictly smaller than 60%? N#CCCN(Cc1ccccc1)C(=O)c1ccc(Nc2nc(N)c(C(=O)c3c(F)cccc3F)s2)cc1 [Example G304]
Key: True

Exercise: Hello, is HCT-116 % Inhibition at 0.25 μM of the following compound strictly smaller than 60%? C#CCN(C)C(=O)c1ccc(Nc2nc(N)c(C(=O)c3c(F)cccc3F)s2)cc1 [Example G282]
Key: True

Exercise: Hello, is HCT-116 % Inhibition at 0.25 μM of the following compound strictly smaller than 60%? Nc1nc(Nc2ccc(C(=O)NCc3ccc(C(F)(F)F)cc3)cc2)sc1C(=O)c1c(F)cccc1F [Example G261]
Key: False

Exercise: Hello, is HCT-116 % Inhibition at 0.25 μM of the following compound strictly smaller than 60%? Cc1cc(C)cc(NC(=O)c2ccc(Nc3nc(N)c(C(=O)c4c(F)cccc4F)s3)cc2)c1 [Example G297]
Key: True

Exercise: Hello, is HCT-116 % Inhibition at 0.25 μM of the following compound strictly smaller than 60%? Nc1nc(Nc2ccc(C(=O)N[C@@H]3CCN(Cc4ccccc4)C3)cc2)sc1C(=O)c1c(F)cccc1F [Example C365]
Key: False

Exercise: Hello, is HCT-116 % Inhibition at 0.25 μM of the following compound strictly smaller than 60%? Cc1cc(NC(=O)c2ccc(Nc3nc(N)c(C(=O)c4c(F)cccc4F)s3)cc2)ccc1F [Example G330]
Key: True

Exercise: Hello, is HCT-116 % Inhibition at 0.25 μM of the following compound strictly smaller than 60%? Nc1nc(Nc2ccc(C(=O)NCCc3cccc(F)c3)cc2)sc1C(=O)c1c(F)cccc1F [Example G349]
Key: True

Exercise: Hello, is HCT-116 % Inhibition at 0.25 μM of the following compound strictly smaller than 60%? Nc1nc(Nc2ccc(C(=O)NCc3ccccc3F)cc2)sc1C(=O)c1c(F)cccc1F [Example G221]
Key: False

Exercise: Hello, is HCT-116 % Inhibition at 0.25 μM of the following compound strictly smaller than 60%? CC(C)(CO)CNC(=O)c1ccc(Nc2nc(N)c(C(=O)c3c(F)cccc3F)s2)cc1 [Example G263]
Key: True

Exercise: Hello, is HCT-116 % Inhibition at 0.25 μM of the following compound strictly smaller than 60%? Nc1nc(Nc2ccc(C(=O)NCCNc3ccc([N+](=O)[O-])cn3)cc2)sc1C(=O)c1c(F)cccc1F [Example G242]
Key: False

Exercise: Hello, is HCT-116 % Inhibition at 0.25 μM of the following compound strictly smaller than 60%? CCOC(CCCNC(=O)c1ccc(Nc2nc(N)c(C(=O)c3c(F)cccc3F)s2)cc1)OCC [Example G392]
Key: True
